Target: T1, human CD73 on COR-L23 lung carcinoma cells (human) (UniProt P21589)
T1 sequence: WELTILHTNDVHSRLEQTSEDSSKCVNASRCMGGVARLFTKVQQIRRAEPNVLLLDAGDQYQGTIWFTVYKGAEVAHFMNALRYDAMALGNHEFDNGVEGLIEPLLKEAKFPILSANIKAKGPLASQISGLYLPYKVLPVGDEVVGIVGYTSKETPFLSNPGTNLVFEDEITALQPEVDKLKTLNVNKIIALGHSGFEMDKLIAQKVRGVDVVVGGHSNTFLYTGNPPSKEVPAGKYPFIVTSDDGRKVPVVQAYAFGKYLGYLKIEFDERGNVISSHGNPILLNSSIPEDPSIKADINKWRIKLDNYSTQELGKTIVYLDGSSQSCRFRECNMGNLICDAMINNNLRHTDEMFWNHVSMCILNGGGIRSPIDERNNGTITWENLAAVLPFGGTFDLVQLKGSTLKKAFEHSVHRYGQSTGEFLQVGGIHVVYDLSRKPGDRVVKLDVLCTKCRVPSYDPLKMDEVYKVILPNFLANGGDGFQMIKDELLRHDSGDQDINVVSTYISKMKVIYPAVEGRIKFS
Test: cell-based or functional assay
Label key: yes (1) means EC50 (nM) of inhibition of CD73 activity (adenosine by LC/MS) under 0.4 nM; no (0) means EC50 (nM) of inhibition of CD73 activity (adenosine by LC/MS) of 0.4 nM or more.

Before answering, review these 4 worked examples.
TB19/H19 (bispecific antibody, part only; not given: H19 arm; constant regions, V domains shown, part only) VH: QEQLQESGPGLVKPSETLSLTCTVSGGSIRNNYYNWIRQPAGKGLEWIGRIYISGTTNSNPSLKSRVTMSIDTSKNQFSLKLSSVTAADTAIYYCAREHYVSGTSLDNWGQGTLVTVSS VL: EIVMTQSPTTLSLSPGERATLSCRASQSVNTNYFSWYQQKPGLTPRLLIYGTSTRATGIPARFSGSGSGTDFTLTISSLQPEDFGIYYCQQDYNLPYTFGQGTYLEIK	yes (1)
TB19/H7 (bispecific antibody, part only; not given: H7 arm; constant regions, V domains shown, part only) VH: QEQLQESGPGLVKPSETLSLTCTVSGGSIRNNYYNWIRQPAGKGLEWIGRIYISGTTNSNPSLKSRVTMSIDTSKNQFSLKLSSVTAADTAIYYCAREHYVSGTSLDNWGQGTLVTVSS VL: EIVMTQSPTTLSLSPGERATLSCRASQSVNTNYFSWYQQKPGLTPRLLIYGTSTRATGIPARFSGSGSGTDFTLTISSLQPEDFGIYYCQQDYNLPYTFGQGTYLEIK	yes (1)
TB19/TC29 (bispecific antibody, part only; not given: TC29 arm; constant regions, V domains shown, part only) VH: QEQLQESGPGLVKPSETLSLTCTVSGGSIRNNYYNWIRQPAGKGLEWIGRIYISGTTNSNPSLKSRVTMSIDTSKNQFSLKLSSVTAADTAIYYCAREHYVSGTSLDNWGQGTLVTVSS VL: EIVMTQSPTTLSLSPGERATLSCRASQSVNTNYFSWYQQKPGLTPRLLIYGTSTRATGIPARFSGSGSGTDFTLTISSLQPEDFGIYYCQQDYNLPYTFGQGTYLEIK	yes (1)
E3.2/TB19 (bispecific antibody, part only; not given: E3.2 arm; constant regions, V domains shown, part only) VH: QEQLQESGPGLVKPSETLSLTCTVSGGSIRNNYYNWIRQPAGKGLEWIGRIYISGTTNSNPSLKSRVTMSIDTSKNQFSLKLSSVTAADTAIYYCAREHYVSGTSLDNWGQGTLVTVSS VL: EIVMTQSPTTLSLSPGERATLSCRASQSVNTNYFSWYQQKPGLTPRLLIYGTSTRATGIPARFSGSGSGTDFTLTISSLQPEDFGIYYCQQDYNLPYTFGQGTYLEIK	no (0)

Read the next record carefully.
Problem: Hello, I'm reviewing records and need to know if EC50 (nM) of inhibition of CD73 activity (adenosine by LC/MS) of CL25/TB19 (bispecific antibody, part only; not given: CL25 arm; constant regions, V domains shown, part only) VH: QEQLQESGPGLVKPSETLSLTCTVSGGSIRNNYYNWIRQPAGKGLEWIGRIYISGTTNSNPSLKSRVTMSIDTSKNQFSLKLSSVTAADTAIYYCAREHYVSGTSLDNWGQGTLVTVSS VL: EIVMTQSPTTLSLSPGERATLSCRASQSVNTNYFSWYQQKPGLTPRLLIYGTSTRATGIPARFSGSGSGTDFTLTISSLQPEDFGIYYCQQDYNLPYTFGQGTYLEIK is below 0.4 nM. Could you check?
Solution: no (0)
